Please provide measured CMC for the entries that follow.
# experiment: CMC assay (conductivity method)
# Assay type: physicochemical
# settings: in water
Give the value; after it, write the unit.

Sure, the documented CMC for O=S(=O)(O)CCCCCCCCCCCSCc1cc(CSCCCCCCCCCCCS(=O)(=O)O)cc(CSCCCCCCCCCCCS(=O)(=O)O)c1 is 497 ± 20.9 µM

Sure, the documented CMC for O=S(=O)(O)CCCSCc1cc2c(cc1CSCCCS(=O)(=O)O)OCCOCCOc1cc(CSCCCS(=O)(=O)O)c(CSCCCS(=O)(=O)O)cc1OCCOCCO2 is 462.69 ± 57 µM

Sure, the documented CMC for O=S(=O)(O)OCCCCCCSCc1cc(CSCCCCCCOS(=O)(=O)O)cc(CSCCCCCCOS(=O)(=O)O)c1 is 1390 ± 45.6 µM

Sure, the documented CMC for O=S(=O)(O)CCCCCCSCc1cc(CSCCCCCCS(=O)(=O)O)cc(CSCCCCCCS(=O)(=O)O)c1 is 882.2 ± 18.9 µM

----------
# System: HSV-2
# experiment: HSV-2 inhibition assay (plaque reduction on Vero cells, pretreatment)
# Assay type: cell-based, herpes simplex virus type 2
# settings: HSV-2 inhibition; concentration intended to inhibit infection by at least 90 and 99%
measurement_type: IC99 (µM)
Write the answer as a number in µM, unit excluded.

Sure, the documented IC99 for O=S(=O)(O)OCCCCCCCCCCCSCc1cc2c(cc1CSCCCCCCCCCCCOS(=O)(=O)O)OCCOCCOc1cc(CSCCCCCCCCCCCOS(=O)(=O)O)c(CSCCCCCCCCCCCOS(=O)(=O)O)cc1OCCOCCO2 [C4C11SO4] is 67.47

Sure, the documented IC99 for O=S(=O)(O)CCCCCCCCCCCSCc1cc2c(cc1CSCCCCCCCCCCCS(=O)(=O)O)OCCOCCOc1cc(CSCCCCCCCCCCCS(=O)(=O)O)c(CSCCCCCCCCCCCS(=O)(=O)O)cc1OCCOCCO2 [C4C11SO3] is 408

Sure, the documented IC99 for O=S(=O)(O)CCCSCc1cc2c(cc1CSCCCS(=O)(=O)O)OCCOCCOc1cc(CSCCCS(=O)(=O)O)c(CSCCCS(=O)(=O)O)cc1OCCOCCO2 [C4C3SO3] is 446

Sure, the documented IC99 for O=S(=O)(O)OCCCCCCSCc1cc(CSCCCCCCOS(=O)(=O)O)cc(CSCCCCCCOS(=O)(=O)O)c1 [B3C6SO4] is 1328

Sure, the documented IC99 for O=S(=O)(O)OCCCCCCCCCCCSCc1cc(CSCCCCCCCCCCCOS(=O)(=O)O)cc(CSCCCCCCCCCCCOS(=O)(=O)O)c1 [B3C11SO4] is 103.8
